Target: T1, human IL-11Rα (human, UniProt Q14626 23-363, limits assumed)
T1 construct: Protein coated on ELISA plates and used in solution for BLI; also called hIL-11Rα; hIL-11R
T1 sequence: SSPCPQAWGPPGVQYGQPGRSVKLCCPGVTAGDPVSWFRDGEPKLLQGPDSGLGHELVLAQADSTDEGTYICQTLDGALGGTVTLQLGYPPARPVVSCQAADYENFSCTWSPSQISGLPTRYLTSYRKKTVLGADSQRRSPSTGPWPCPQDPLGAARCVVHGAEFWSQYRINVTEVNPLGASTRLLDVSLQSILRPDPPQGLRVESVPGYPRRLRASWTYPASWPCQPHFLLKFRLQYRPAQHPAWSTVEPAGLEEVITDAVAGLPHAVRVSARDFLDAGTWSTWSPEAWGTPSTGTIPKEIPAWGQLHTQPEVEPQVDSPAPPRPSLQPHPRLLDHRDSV
Assay: competitive ELISA, IL-11R coated on plate; competitor: biotinylated 8E2 (0.1 µg/mL)
Readout: IC50 (µg/mL)
Your answer should be a plain number; it is taken to be in µg/mL.

A selection of reference data follows.
Binder	IC50 / µg/mL
mAb5 (antibody, V domains shown, Expressed as human IgG4 (S228P EU); also called mAb5 IL11RA Ab) VH: EVQLLESGGGLVQPGGSLRLSCAASGFTFSWYSMTWVRQAPGKGLEWVSSIVPYGDLTQYADSVKGRFTISRDNSKNTLYLQMNSLRAEDTAVYYCAKGPGWGSFDLWGRGTLVTVSS VL: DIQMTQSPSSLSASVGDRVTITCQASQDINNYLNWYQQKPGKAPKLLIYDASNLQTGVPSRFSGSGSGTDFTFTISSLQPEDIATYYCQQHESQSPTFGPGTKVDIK	1.4
mAb3 (antibody, V domains shown, Expressed as human IgG4 (S228P EU)) VH: EVQLLESGGGLVQPGGSLRLSCAASGFTFSWYSMTWVRQAPGKGLEWVSSIVPYGDLTQYADSVKGRFTISRDNSKNTLYLQMNSLRAEDTAVYYCAKGPDWGSFDLWGRGTLVTVSS VL: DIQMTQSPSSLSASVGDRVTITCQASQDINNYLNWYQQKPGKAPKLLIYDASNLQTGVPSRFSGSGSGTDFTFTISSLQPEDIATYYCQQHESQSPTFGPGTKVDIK	2.8
mAb6 (antibody, V domains shown, Expressed as human IgG4 (S228P EU)) VH: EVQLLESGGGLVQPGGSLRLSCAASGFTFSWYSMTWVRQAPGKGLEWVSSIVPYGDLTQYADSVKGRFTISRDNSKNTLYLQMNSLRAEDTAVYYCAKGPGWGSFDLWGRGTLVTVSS VL: DIQMTQSPSSLSASVGDRVTITCQASQDINNYLNWYQQKPGKAPKLLIYDASNLQTGVPSRFSGSGSGTDFTFTISSLQPEDIATYYCQQHEFQSPTFGPGTKVDIK	1.5

Consider the record given below.
Exercise: Bench note: what IC50 did mAb4 (antibody, V domains shown, Expressed as human IgG4 (S228P EU)) VH: EVQLLESGGGLVQPGGSLRLSCAASGFTFSWYSMTWVRQAPGKGLEWVSSIVPYGDLTQYADSVKGRFTISRDNSKNTLYLQMNSLRAEDTAVYYCAKGPDWGSFDLWGRGTLVTVSS VL: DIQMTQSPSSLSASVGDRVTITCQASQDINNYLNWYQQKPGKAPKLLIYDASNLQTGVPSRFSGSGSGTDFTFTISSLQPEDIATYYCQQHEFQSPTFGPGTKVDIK show?
Key: 5.5

Sourced from patent US20240425606A1
